Test system: M. tuberculosis H37Ra
protocolDetails: microbe, parasite or virus in culture
Type: cell-based, Mycobacterium tuberculosis
conditionNotes: Mycobacterium tuberculosis, H37RA, read-out: MIC against H37Ra
propertyLabel: MIC

[
  {
    "compound": "COc1ccc(F)c(F)c1Cn1ccc2c(C(=O)NCCF)cc(Br)cc21 [A1]",
    "systemTested": "M. tuberculosis H37Ra",
    "propertyLabel": "MIC",
    "result": "> 6.25 µg/mL"
  },
  {
    "compound": "COc1ncc(C(F)(F)F)cc1Cn1ccc2c(C(=O)NCC(F)F)cc(Br)cc21 [A5]",
    "systemTested": "M. tuberculosis H37Ra",
    "propertyLabel": "MIC",
    "result": "> 6.25 µg/mL"
  },
  {
    "compound": "COc1ccc(F)c(F)c1Cn1ccc2c(C(=O)NCC(F)F)cc(C)cc21 [A7]",
    "systemTested": "M. tuberculosis H37Ra",
    "propertyLabel": "MIC",
    "result": "> 6.25 µg/mL"
  }
]

Now take the following compound into account.
Could you please provide reported MIC for Cc1nc(C)c(CN2CCOc3c(C(=O)N[C@H](C)C(F)(F)F)cc(C4CC4)cc32)nc1C [B27] ? Thanks!
> 25 µg/mL

* * *

protocolDetails: in vitro
Assay type: in vitro ADME
conditionNotes: rat, plasma, pH 7.4
propertyLabel: fraction unbound at 5 h, 1 µM
# print the numeric value only

Please give measured fraction unbound at 5 h, 1 µM of the following entry: "Cc1nc(C)c(CN2CCOc3c(C(=O)NCC(F)(F)F)cc(C4CC4)cc32)nc1C"
0.042

* * *

System: A549
protocolDetails: Cell viability assay (MTT), A549
Type: cell-based
conditionNotes: Homo sapiens, 48 h
Examples of compounds with documented IC50 follow.

[
  {
    "compound": "Cc1nc(C)c(CN2CCOc3c(C(=O)NCC(F)(F)F)cc(C4CC4)cc32)nc1C [B18]",
    "propertyLabel": "IC50",
    "result": "> 40 µM"
  }
]

Provide IC50 value for the following compound: COc1ncnc(Cn2cc(C(=O)NCCO)c3ncc(C)cc32)c1C [TBA-7371, reference compound]
> 40 µM

* * *

Tested on: M. tuberculosis H37Ra
protocolDetails: microbe, parasite or virus in culture
Format: cell-based, Mycobacterium tuberculosis
conditionNotes: Mycobacterium tuberculosis, H37RA, read-out: MIC against H37Ra
Each item that follows carries a reported MIC.

Examples with answers:
[
  {
    "compound": "Cc1nc(C)c(CN2CCOc3c(C(=O)NCC(F)F)cc(C4CC4)cc32)nc1C",
    "systemTested": "M. tuberculosis H37Ra",
    "MIC": "0.6 µg/mL"
  },
  {
    "compound": "Cc1nc(C)c(CN2CCOc3c(C(=O)N(C)CC(F)(F)F)cc(C4CC4)cc32)nc1C",
    "systemTested": "M. tuberculosis H37Ra",
    "MIC": "> 25 µg/mL"
  },
  {
    "compound": "COc1ncnc(Cn2ccc3c(C(=O)NCC(F)F)cc(C)cc32)c1C",
    "systemTested": "M. tuberculosis H37Ra",
    "MIC": "0.18 µg/mL"
  },
  {
    "compound": "Cc1nc(C)c(CN2CCOc3c(C(=O)NC4CCC(F)(F)CC4)cc(C4CC4)cc32)nc1C",
    "systemTested": "M. tuberculosis H37Ra",
    "MIC": "> 25 µg/mL"
  }
]

Write down MIC measured for item "Cc1nc(C)c(CN2CCOc3c(C(=O)NCC(C)(F)F)cc(C4CC4)cc32)nc1C"
> 25 µg/mL

Note MIC for the compound shown: "COc1ccc(F)c(F)c1CN1CCOc2c(C(=O)NCC(F)F)cc(Br)cc21"
> 100 µg/mL

Given the compound "Cc1nc(C)c(Cn2ccc3c(C(=O)NCC(F)F)cc(Br)cc32)nc1C" , write its reported MIC.
> 6.25 µg/mL

Please give the documented MIC of "COc1c(CN2CCOc3c(C(=O)NCCO)cc(Br)cc32)ccc(F)c1F"
> 100 µg/mL

Return value of MIC for input "Cc1nc(C)c(CN2CCOc3c(C(=O)NCCO)cc(C4CC4)cc32)nc1C" , no commentary.
> 100 µg/mL

Using known records, supply MIC for "Cc1cc(C(=O)NCC(F)F)c2c(c1)N(Cc1nc(C)c(C)nc1C)CCO2"
0.18 µg/mL

Provide measured MIC value, entry: "COc1ccc(F)c(F)c1CN1CCOc2c(C(=O)NCCO)cc(Br)cc21"
> 100 µg/mL

Give the reported value of MIC for this record: "COc1ccc(F)c(F)c1Cn1ccc2c(C(=O)NCC(F)F)cc(Br)cc21"
> 6.25 µg/mL

Note MIC for the compound shown: "COc1ncnc(Cn2ccc3c(C(=O)NCC(F)F)cc(Br)cc32)c1C"
0.5 µg/mL

// fetch MIC given entry "Cc1ccc(CN2CCOc3c(C(=O)NCC(F)(F)F)cc(C4CC4)cc32)cc1"
> 25 µg/mL

Please give measured MIC of the following entry: "COc1ncc(C(F)(F)F)cc1Cn1ccc2c(C(=O)NCC(F)F)cc(C)cc21"
> 6.25 µg/mL

For "COc1cc(CN2CCOc3c(C(=O)NCC(F)(F)F)cc(C4CC4)cc32)cc(OC)c1" , write its MIC.
> 25 µg/mL

For the compound "Cc1cc(C(=O)NC2CCCCC2)c2c(c1)N(Cc1nc(C)c(C)nc1C)CCO2" , report MIC.
< 0.78 µg/mL

Specify measured MIC for "COC(=O)c1cccc(CN2CCOc3c(C(=O)NCC(F)(F)F)cc(C4CC4)cc32)c1" .
> 25 µg/mL

State its MIC: "Cc1nc(C)c(CN2CCOc3c(C(=O)NCCCC(F)(F)F)cc(C4CC4)cc32)nc1C"
> 25 µg/mL

Look up and report measured MIC for this entry: "O=C(NCC(F)(F)F)c1cc(C2CC2)cc2c1OCCN2Cc1ccc2ccccc2c1"
> 25 µg/mL

Give the reported value of MIC for this record: "Cc1nc(C)c(CN2CCOc3c(C(=O)N[C@@H](C)C(F)(F)F)cc(C4CC4)cc32)nc1C"
> 25 µg/mL

* * *

systemTested: human PDE6C (Homo sapiens, UniProt P51160)
Sequence (P51160 whole entry): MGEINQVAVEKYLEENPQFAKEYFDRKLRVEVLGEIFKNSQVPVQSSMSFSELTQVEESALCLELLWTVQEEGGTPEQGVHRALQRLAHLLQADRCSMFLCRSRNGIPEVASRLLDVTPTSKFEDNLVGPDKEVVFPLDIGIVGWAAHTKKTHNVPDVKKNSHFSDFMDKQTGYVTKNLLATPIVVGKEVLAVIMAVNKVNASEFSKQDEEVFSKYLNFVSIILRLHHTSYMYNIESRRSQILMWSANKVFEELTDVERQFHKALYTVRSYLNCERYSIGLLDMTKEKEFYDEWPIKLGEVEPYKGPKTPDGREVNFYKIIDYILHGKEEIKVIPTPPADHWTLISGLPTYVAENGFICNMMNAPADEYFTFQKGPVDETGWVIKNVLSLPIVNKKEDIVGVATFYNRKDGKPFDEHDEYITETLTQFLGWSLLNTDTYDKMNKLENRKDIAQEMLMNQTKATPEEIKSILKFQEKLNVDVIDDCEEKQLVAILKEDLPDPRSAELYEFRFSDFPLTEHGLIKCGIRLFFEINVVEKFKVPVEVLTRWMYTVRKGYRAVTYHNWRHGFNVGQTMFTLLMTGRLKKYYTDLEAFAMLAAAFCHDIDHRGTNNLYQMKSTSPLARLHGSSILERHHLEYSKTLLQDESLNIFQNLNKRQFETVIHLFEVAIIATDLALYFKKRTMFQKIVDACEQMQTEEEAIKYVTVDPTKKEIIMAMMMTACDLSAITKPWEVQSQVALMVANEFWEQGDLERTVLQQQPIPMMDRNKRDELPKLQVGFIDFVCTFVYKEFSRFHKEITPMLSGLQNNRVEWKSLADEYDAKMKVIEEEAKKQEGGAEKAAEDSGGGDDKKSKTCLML
propertyLabel: pIC50
# pIC50 is unitless: minus log10 of the molar concentration; print number only

Please report pIC50 for the following compound: Cc1nc(C)c(CN2CCOc3c(C(=O)NCC(F)(F)F)cc(C4CC4)cc32)nc1C [B18]
4.09

* * *

protocolDetails: physchem
Format: physicochemical
conditionNotes: 37 °C, water, thermodynamic from solid
propertyLabel: solubility at 24 h (µg/mL)
Express the result in µg/mL but write the number alone.

Give the value of solubility at 24 h reported for the following: "Cc1nc(C)c(CN2CCOc3c(C(=O)NCC(F)(F)F)cc(C4CC4)cc32)nc1C"
21

* * *

System: VERO
protocolDetails: Cell viability assay (MTT), VERO
Format: cell-based
conditionNotes: Chlorocebus sabaeus, 48 h
pIC50: −log10 of the molar value.
propertyLabel: pIC50

[
  {
    "compound": "COc1ncnc(Cn2cc(C(=O)NCCO)c3ncc(C)cc32)c1C [TBA-7371, reference compound]",
    "systemTested": "VERO",
    "propertyLabel": "pIC50",
    "result": "< 4.40"
  }
]

API: the following record is the query input.
Specify pIC50 for Cc1nc(C)c(CN2CCOc3c(C(=O)NCC(F)(F)F)cc(C4CC4)cc32)nc1C [B18] and stop.
< 4.40

* * *

Tested on: M. tuberculosis H37Ra
protocolDetails: microbe, parasite or virus in culture
Type: cell-based, Mycobacterium tuberculosis
conditionNotes: Mycobacterium tuberculosis, H37RA, read-out: MIC against H37Ra
Reported MIC is given for each of the following compounds.

Reference set, count: 6
[
  {
    "compound": "Cc1nc(C)c(CN2CCOc3c(C(=O)NCC(F)(F)CO)cc(C4CC4)cc32)nc1C",
    "MIC": "> 25 µg/mL"
  },
  {
    "compound": "COc1ccc(F)c(F)c1CN1CCOc2c(C(=O)NCCF)cc(Br)cc21",
    "MIC": "> 100 µg/mL"
  },
  {
    "compound": "Cc1cc(C)cc(CN2CCOc3c(C(=O)NCC(F)(F)F)cc(C4CC4)cc32)c1",
    "MIC": "> 25 µg/mL"
  },
  {
    "compound": "COc1ncnc(Cn2cc(C(=O)NCCO)c3ncc(C)cc32)c1C [TBA-7371, reference compound]",
    "MIC": "0.18 µg/mL"
  },
  {
    "compound": "Cc1cc(C(=O)NC2CC2)c2c(c1)N(Cc1nc(C)c(C)nc1C)CCO2",
    "MIC": "50 µg/mL"
  },
  {
    "compound": "Cc1nc(C)c(CN2CCOc3c(C(=O)NCCC(F)(F)F)cc(C4CC4)cc32)nc1C",
    "MIC": "> 25 µg/mL"
  }
]

Supply recorded MIC for "COc1ccc(F)c(F)c1Cn1ccc2c(C(=O)NCCF)cc(C)cc21" here.
> 6.25 µg/mL

Please look at this compound and report its MIC: "COc1c(CN2CCOc3c(C(=O)NCC(F)F)cc(Br)cc32)ccc(F)c1F"
> 100 µg/mL
